Recorded Ki, one value per entry.
Target: Bifunctional dihydrofolate reductase-thymidylate synthase [N51I,C59R,S108N,I164L] (Plasmodium falciparum (isolate K1 / Thailand), UniProt Q8I1R6, C59R/I164L/N51I/S108N)
Sequence (Q8I1R6 whole entry N51I/C59R/S108N/I164L): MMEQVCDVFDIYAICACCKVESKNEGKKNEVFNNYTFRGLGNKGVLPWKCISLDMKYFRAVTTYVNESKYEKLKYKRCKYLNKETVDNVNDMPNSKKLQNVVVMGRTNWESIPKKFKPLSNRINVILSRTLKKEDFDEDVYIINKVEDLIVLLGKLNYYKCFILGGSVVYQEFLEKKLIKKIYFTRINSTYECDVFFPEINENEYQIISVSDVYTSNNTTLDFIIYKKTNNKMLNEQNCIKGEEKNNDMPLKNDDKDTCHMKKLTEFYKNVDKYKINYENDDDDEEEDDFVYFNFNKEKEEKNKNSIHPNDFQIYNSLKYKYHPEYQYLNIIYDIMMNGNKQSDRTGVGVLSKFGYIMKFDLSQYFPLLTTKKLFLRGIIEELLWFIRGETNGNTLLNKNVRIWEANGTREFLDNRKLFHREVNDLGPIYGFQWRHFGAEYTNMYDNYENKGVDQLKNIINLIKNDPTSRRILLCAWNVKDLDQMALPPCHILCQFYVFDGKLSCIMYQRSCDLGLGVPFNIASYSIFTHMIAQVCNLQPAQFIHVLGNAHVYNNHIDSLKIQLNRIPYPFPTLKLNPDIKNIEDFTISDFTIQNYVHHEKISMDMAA
Test: Antimalarial Testing In Vitro (IC50) and Measurement of Inhibition Constant (Ki)
Conditions: pH 7; 25 °C

Structure as smiles	Ki, nM
CC1(C)N=C(N)N=C(N)N1c1ccc(Cl)cc1	254
CC1(C)N=C(N)N=C(N)N1OCCCOc1cc(Cl)c(Cl)cc1Cl	0.037

====

molecules and their reported IC50
Target: Bifunctional dihydrofolate reductase-thymidylate synthase (Plasmodium falciparum (isolate K1 / Thailand))
Test: Antimalarial Testing In Vitro (IC50) and Measurement of Inhibition Constant (Ki)
Settings: pH 7; 25 °C
Measure name: IC50 (µM)

Structure as smiles	Measure name	Endpoint unit	Endpoint result
CC1(C)N=C(N)N=C(N)N1OCCCOc1cc(Cl)c(Cl)cc1Cl	IC50	µM	0.0023
CC1(C)N=C(N)N=C(N)N1c1ccc(Cl)cc1	IC50	µM	2.4

====

Target: Bifunctional dihydrofolate reductase-thymidylate synthase (Plasmodium falciparum (isolate K1 / Thailand), UniProt Q8I1R6)
Sequence (Q8I1R6 whole entry): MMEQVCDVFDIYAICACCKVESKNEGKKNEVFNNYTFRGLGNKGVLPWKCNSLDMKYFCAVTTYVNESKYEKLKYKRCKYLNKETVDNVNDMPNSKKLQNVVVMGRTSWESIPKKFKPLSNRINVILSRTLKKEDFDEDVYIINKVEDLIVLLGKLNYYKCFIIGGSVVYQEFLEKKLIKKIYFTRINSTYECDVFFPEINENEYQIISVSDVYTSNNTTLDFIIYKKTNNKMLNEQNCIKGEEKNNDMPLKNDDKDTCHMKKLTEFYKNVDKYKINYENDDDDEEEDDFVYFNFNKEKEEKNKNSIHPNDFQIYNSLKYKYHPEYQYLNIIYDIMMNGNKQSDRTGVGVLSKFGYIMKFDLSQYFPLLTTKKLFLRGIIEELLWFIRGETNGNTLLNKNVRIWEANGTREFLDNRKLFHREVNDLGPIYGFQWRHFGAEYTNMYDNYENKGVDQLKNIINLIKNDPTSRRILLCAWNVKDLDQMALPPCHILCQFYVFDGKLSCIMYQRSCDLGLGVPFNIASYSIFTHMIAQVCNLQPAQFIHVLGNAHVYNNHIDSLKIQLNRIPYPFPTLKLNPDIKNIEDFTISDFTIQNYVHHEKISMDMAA
Test: Antimalarial Testing In Vitro (IC50) and Measurement of Inhibition Constant (Ki)
Conditions: pH 7; 25 °C

Structure as smiles	Endpoint unit	Ki
CC1(C)N=C(N)N=C(N)N1c1ccc(Cl)cc1	nM	0.3
CC1(C)N=C(N)N=C(N)N1OCCCOc1cc(Cl)c(Cl)cc1Cl	nM	0.011

====

Molecular target: Bifunctional dihydrofolate reductase-thymidylate synthase [N51I,C59R,S108N,I164L] (Plasmodium falciparum (isolate K1 / Thailand), UniProt Q8I1R6, C59R/I164L/N51I/S108N)
Assay: Antimalarial Testing In Vitro (IC50) and Measurement of Inhibition Constant (Ki)
Conditions: pH 7; 25 °C
Entries and their IC50 values follow.
Measure name: IC50 (nM)

Structure as smiles	Readout qualifier	Endpoint result
CC1(C)N=C(N)N=C(N)N1OCCCOc1cc(Cl)c(Cl)cc1Cl	=	18
CC1(C)N=C(N)N=C(N)N1c1ccc(Cl)cc1	>	100000
